- TEST_DESCRIPTION: NCI Yeast Anticancer Drug Screen. Data for the mlh1 rad18 strain (AID 175)
- CONDITION_SET: S. cerevisiae mlh1 rad18 strain growth inhibition; at 50.0 µM; hits give high values
The panel holds about 79,000 compounds, 15% with a hit somewhere; the sample as a whole holds those more often.
REPORTED_METRIC: growth inhibition (%)

* O=C([O-])c1cc(I)cc(I)c1[OH2+].O=C([O-])c1cc(I)cc(I)c1[OH2+].[Mn+2] | 5.8
* COc1ccc(CC(=O)NC(N)=O)cc1 | 5.15
* C/C(=N/Nc1ccc([N+](=O)[O-])cc1[N+](=O)[O-])c1ccccc1 | -11

----------
As shown below, each of these compounds has a reported growth inhibition value.
- TEST_DESCRIPTION: NCI Yeast Anticancer Drug Screen. Data for the rad50 strain (AID 155);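 note: 0% = growth of vehicle-only cultures of the same strain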
- CONDITION_SET: S. cerevisiae rad50 strain growth inhibition; at 50.0 µM; hits give high values
Compounds without any hit were thinned out: in the full panel of roughly 79,000, 15% have a hit.
REPORTED_METRIC: growth inhibition (%)

• COc1ccc(/C=C2\C(=O)N(C(=O)c3ccc(NC(C)=O)cc3)N=C2C)cc1 = -27.6
• COC1C(/C=[N+](\C)[O-])OC2OC(C)(C)OC21 (stereo not drawn) = 10.2
• CN(C)c1ccc(/C=N/NC(=O)c2ccccc2NC(=O)c2ccc(Cl)cc2)c(Cl)c1 = 1.4

----------
Let's look at some molecules and their measured growth inhibition.
- TEST_DESCRIPTION: NCI Yeast Anticancer Drug Screen. Data for the mec2-1 strain (AID 157)
- CONDITION_SET: S. cerevisiae mec2-1 strain, at 50.0 µM, hits give high values
About 79,000 compounds went through this panel and 15% of them were active in at least one assay; those are over-represented in the sample as a whole.
REPORTED_METRIC: growth inhibition (%)

- O=C(NCO)NCOCn1c(=O)n(CO)c(=O)n(CO)c1=O: -22.6
- COc1cc(C(C#N)NNc2nc(C)cc(=O)[nH]2)cc(OC)c1OC (centres undefined): -2.75
- CCOC(=O)CC(O)(c1ccccc1)c1ccccc1: -47.4
- O=P(O)(O)c1ccc(I)cc1: -30.6

----------
- TEST_DESCRIPTION: NCI Yeast Anticancer Drug Screen. Data for the mlh1 rad18 strain (AID 175)
- CONDITION_SET: S. cerevisiae mlh1 rad18 strain growth inhibition; at 50.0 µM; hits give high values
- Experimental: Growth inhibition of yeast strains with defined genetic alterations is measured as a screen for potential anti-cancer activity. Selected strains with alterations in DNA damage repair or cell cycle control were exposed to compounds and growth inhibition was measured relative to vehicle treated controls. The strain used in this assay is mlh1 rad18
About 79,000 compounds went through this panel and 15% of them were active in at least one assay; those are over-represented in the sample as a whole.
REPORTED_METRIC: growth inhibition (%)

- CCOC1=C/C(=N\NC(N)=O)CCC1: 0.1
- N#Cc1ccc(Oc2ccc(C#N)cc2)cc1: -1.1
- COC(=O)c1cnccn1: -6.3
- Cc1nc2ccccc2nc1N1CCCC1: 0.55
- CC(=O)c1c(P(=O)(OC(C)C)OC(C)C)nn(-c2ccc([N+](=O)[O-])cc2)c1C: 32.2
